Target: Serine/threonine-protein kinase DCLK1 (Homo sapiens, UniProt O15075)
Sequence (O15075 whole entry, the tested form may be a part): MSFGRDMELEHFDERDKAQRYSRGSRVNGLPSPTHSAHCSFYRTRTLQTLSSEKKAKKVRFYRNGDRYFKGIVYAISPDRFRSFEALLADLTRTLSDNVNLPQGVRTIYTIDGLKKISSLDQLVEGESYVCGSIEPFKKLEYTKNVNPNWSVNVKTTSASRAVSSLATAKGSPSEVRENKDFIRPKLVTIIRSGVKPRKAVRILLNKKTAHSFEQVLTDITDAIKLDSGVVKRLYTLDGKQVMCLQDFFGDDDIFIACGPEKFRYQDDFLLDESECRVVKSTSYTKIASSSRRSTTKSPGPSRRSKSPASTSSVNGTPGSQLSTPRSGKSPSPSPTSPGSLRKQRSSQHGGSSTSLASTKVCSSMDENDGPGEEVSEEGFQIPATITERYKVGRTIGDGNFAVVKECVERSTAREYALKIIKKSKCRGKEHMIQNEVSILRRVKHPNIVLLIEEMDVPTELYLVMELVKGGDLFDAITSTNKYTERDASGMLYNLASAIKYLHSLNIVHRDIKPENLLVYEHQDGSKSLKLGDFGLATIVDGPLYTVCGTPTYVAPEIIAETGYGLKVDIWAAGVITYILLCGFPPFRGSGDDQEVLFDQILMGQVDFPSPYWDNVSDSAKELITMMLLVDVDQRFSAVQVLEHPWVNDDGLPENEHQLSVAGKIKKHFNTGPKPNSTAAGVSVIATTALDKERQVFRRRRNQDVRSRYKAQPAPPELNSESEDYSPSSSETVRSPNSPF
Assay: Inhibition of recombinant human N-terminal His6-tagged DCLK1 (G351 to H689 residues) expressed in Escherichia coli BL21 DE3 using 5-FAM-KKLRRTLSVA-COOH as substrate measured after 2 hrs by mobility shift assay
measured.metric: pIC50
One number for each entry, as −log10 of the molar value.

Would you please look over these solved cases?
* COc1cc(N2CCNCC2)ccc1Nc1ncc2c(n1)N(C)c1ccccc1C(=O)N2C | 7.28
* CC(C)Oc1cc(N2CCN(C)CC2)ccc1Nc1ncc2c(n1)N(C)c1ccccc1C(=O)N2CC(F)(F)F | 6.67
* COc1cc(N2CCC(O)CC2)ccc1Nc1ncc2c(n1)N(C)c1ccccc1C(=O)N2C | 7.01

Query compound follows.
Please look at this compound and report its pIC50: COc1cc(N2CCN(C)CC2)ccc1Nc1ncc2c(n1)N(C)c1ccccc1C(=O)N2C(C)C
6.39

---

Assay: Clearance in mouse
Format: ADME, organism-based
Conditions: in vivo
measured.metric: clearance (mL/min/kg)
Give bare numbers, in mL/min/kg.

Note down clearance recorded for COc1cc(N2CCN(C)CC2)ccc1Nc1ncc2c(n1)N(C)c1ccccc1C(=O)N2CC(F)(F)F
26.3

---

Target: Mitogen-activated protein kinase 7 (Homo sapiens)
Sequence (Q13164 whole entry): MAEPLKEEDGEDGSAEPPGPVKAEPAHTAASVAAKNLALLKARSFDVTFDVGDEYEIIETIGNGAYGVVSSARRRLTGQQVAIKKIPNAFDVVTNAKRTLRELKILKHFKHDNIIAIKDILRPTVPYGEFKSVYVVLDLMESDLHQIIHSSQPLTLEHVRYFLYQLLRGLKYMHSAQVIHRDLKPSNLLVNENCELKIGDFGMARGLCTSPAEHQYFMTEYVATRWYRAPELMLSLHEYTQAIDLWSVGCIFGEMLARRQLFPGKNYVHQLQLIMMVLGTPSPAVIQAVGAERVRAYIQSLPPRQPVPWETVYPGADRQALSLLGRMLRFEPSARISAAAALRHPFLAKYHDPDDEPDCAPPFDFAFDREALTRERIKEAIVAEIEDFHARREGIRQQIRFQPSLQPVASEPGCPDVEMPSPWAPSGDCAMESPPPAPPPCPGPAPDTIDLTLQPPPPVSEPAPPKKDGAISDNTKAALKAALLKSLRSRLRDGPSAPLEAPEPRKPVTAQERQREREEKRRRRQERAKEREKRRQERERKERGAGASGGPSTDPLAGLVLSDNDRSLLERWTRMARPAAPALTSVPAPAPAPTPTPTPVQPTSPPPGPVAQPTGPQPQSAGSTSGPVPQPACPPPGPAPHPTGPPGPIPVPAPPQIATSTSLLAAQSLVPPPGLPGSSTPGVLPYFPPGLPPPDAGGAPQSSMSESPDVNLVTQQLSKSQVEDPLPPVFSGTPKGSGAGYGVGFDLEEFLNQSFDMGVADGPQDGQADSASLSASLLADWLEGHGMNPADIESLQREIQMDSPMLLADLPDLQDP
Experiment: Inhibition of ERK5 in human HeLa cells assessed as reduction in EGF-induced ERK5 autophosphorylation pretreated for 1 hr followed by EGF stimulation and measured after 17 mins by […]
Assay type: cell-based
measured.metric: pIC50
One number for each entry, as −log10 of the molar value.

Illustrative cases are given below, each with its answer.
* COc1cc(N2CCN(C)CC2)ccc1Nc1ncc2c(n1)N(C)c1ccccc1C(=O)N2 | 5.92
* COc1cc(N2CCN(C)CC2)ccc1Nc1ncc2c(n1)N(C1CCC1)c1ccccc1C(=O)N2C | 7.10

Give measured pIC50 for every item shown.
1. COc1cc(NS(C)(=O)=O)ccc1Nc1ncc2c(n1)N(C)c1ccccc1C(=O)N2C
2. CCN1C(=O)c2ccccc2N(C)c2nc(Nc3ccc(C(=O)NC4CCN(C)CC4)cc3OC)ncc21
3. CCN1C(=O)c2ccccc2N(C)c2nc(Nc3ccc(N4CCN(C)CC4)cc3OC)ncc21
4. CCC(C)N1c2ccccc2C(=O)N(C)c2cnc(Nc3ccc(N4CCN(C)CC4)cc3OC)nc21 (configuration not stated)

6.56
6.32
5.92
6.65

---

Molecular target: Leucine-rich repeat serine/threonine-protein kinase 2 (Homo sapiens, UniProt Q5S007)
Sequence (Q5S007 whole entry, the tested form may be a part): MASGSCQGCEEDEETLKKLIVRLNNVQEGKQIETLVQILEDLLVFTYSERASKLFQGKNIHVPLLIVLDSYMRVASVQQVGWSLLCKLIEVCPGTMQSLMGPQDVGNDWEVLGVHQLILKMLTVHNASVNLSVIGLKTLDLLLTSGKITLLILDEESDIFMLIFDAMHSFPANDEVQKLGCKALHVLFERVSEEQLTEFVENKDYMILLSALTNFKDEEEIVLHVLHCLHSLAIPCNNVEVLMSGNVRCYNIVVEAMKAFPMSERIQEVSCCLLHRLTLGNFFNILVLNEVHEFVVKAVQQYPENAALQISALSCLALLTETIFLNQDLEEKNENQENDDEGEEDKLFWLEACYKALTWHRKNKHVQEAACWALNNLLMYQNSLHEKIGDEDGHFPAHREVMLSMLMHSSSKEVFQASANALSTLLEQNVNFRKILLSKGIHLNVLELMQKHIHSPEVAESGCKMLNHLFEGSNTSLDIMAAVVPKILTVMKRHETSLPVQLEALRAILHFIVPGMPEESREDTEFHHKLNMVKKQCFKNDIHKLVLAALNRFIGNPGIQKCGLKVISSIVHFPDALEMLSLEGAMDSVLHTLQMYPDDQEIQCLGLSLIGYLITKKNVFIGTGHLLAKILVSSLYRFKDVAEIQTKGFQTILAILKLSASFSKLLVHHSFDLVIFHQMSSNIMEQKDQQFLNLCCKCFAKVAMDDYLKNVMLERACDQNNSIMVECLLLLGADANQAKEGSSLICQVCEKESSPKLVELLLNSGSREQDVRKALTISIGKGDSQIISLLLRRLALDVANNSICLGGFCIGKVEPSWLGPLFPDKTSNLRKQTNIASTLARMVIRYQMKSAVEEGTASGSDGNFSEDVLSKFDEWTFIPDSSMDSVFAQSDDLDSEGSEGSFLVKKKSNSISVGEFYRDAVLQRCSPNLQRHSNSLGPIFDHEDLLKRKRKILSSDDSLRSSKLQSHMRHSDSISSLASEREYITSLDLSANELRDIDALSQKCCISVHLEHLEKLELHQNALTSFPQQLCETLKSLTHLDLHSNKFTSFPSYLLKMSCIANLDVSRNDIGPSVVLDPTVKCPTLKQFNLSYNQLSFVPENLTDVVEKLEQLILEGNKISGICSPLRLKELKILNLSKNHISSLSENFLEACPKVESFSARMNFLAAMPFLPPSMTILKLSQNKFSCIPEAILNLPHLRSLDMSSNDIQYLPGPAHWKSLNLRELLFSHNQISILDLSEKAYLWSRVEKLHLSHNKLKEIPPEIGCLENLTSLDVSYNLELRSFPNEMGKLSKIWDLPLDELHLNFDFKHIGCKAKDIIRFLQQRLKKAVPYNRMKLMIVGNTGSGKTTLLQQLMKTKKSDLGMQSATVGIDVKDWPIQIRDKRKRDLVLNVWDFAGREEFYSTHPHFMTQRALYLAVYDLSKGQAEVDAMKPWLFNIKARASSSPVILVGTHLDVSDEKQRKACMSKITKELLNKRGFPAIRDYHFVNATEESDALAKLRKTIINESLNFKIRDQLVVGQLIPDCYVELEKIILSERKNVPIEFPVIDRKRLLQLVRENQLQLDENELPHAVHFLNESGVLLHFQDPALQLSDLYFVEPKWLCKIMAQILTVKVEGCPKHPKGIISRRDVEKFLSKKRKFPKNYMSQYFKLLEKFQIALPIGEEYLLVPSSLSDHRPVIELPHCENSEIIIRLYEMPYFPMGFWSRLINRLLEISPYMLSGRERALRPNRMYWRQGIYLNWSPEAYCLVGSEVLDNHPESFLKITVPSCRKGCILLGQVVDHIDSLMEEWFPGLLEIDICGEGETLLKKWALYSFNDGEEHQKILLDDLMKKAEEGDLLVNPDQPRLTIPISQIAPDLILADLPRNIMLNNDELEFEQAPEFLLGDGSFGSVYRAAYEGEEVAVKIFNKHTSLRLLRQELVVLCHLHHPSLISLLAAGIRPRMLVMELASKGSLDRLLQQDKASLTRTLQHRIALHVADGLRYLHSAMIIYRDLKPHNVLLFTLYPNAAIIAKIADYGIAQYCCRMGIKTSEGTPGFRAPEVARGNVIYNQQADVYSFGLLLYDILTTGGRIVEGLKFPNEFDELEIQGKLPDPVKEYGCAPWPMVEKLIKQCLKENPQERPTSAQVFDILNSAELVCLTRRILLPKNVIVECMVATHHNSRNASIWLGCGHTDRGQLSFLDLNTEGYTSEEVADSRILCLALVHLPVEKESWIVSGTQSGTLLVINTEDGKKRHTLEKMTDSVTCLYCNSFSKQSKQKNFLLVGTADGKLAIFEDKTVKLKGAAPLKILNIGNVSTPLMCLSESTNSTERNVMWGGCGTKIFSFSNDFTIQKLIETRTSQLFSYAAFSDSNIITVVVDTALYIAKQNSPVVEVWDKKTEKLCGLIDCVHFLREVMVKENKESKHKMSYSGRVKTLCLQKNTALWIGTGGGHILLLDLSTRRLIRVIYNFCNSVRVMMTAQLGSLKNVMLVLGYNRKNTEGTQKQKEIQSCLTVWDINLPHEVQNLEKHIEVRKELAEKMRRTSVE
Assay: Inhibition of recombinant human GST-tagged LRRK2 catalytic domain (970 to 2527 residues) expressed in baculovirus expression system using LRRKtide as substrate measured after 1 hr by Alexa fluor-647 ADP tracer-based ADAPTA assay
I'd be grateful if you could share measured pIC50 for these entries.
Answers are plain numbers, as −log10 of the molar value.

# example entries with known answers
- COc1cc(N2CCN(C)CC2)ccc1Nc1ncc2c(n1)N(C)c1ccc(Cl)cc1C(=O)N2C: 5.88
- CN1C(=O)c2ccccc2N(C)c2nc(Nc3ccc(N4CCC(O)CC4)cc3)ncc21: 7.52

Please state, for each entry, its recorded pIC50.
1. COc1cc(C(=O)N2CCN(C3CCN(C)CC3)CC2)ccc1Nc1ncc2c(n1)N(C)c1ccccc1C(=O)N2C
2. COc1cc(N2CCN(C)CC2)ccc1Nc1ncc2c(n1)N(Cc1ccccc1)c1ccccc1C(=O)N2C
3. CCN1c2ccccc2C(=O)N(C)c2cnc(Nc3ccc(N4CCN(C)CC4)cc3OC)nc21
4. Cc1cc(N2CCC(O)CC2)ccc1Nc1ncc2c(n1)N(C)c1ccccc1C(=O)N2C
5. COc1cc(N2CCNCC2)ccc1Nc1ncc2c(n1)N(C)c1ccccc1C(=O)N2C

1: 8.30; 2: 6.85; 3: 7.24; 4: 7.46; 5: 7.64

Give pIC50 only, for COc1cc(N2CCOCC2)ccc1Nc1ncc2c(n1)N(C)c1ccccc1C(=O)N2C , using Leucine-rich repeat serine/threonine-protein kinase 2 (Homo sapiens, UniProt Q5S007) data.
7.51
